Here is a set of compounds with reported pKd for Receptor-interacting serine/threonine-protein kinase 3 (Homo sapiens, UniProt Q9Y572), compiled from the literature.
pKd: −log10 of the molar value.
READOUT: pKd

>  <MOLECULE>
Cc1cc(-c2ccc(NS(=O)(=O)C(F)F)c(OCc3ccc(F)cc3)c2)c2c(N)n[nH]c2n1

>  <READOUT>
pKd

>  <ENDPOINT VALUE>
< 5.00

$$$$
>  <MOLECULE>
CCS(=O)(=O)Nc1ccc(-c2coc3c(-c4cnn(C5CCOCC5)c4)cnc(N)c23)cc1OCc1ccc(F)cc1

>  <READOUT>
pKd

>  <ENDPOINT VALUE>
< 5.00

$$$$
>  <MOLECULE>
NC(=O)c1c(-c2ccc(NS(=O)(=O)C3CC3)c(OCc3ccc(F)cc3)c2)n[nH]c1Nc1cnccn1

>  <READOUT>
pKd

>  <ENDPOINT VALUE>
< 4.52

$$$$
>  <MOLECULE>
CCS(=O)(=O)Nc1ccc(-c2n[nH]c(Nc3cnccn3)c2C(N)=O)cc1OCc1cccc(C(F)(F)F)c1

>  <READOUT>
pKd

>  <ENDPOINT VALUE>
< 4.52

$$$$
>  <MOLECULE>
C[C@H](Oc1cc(-c2nn(C)c3c(-c4ccc(N5CCN(C)CC5)nc4)cnc(N)c23)ccc1NS(=O)(=O)C(F)F)c1ccc(F)cc1

>  <READOUT>
pKd

>  <ENDPOINT VALUE>
< 5.00

$$$$
>  <MOLECULE>
CCS(=O)(=O)Nc1ccc(-c2ncn3ccnc(N)c23)cc1OCc1ccc(F)cc1

>  <READOUT>
pKd

>  <ENDPOINT VALUE>
< 5.00

$$$$
>  <MOLECULE>
NC(=O)c1c(-c2ccc(NS(=O)(=O)CC(F)(F)F)cc2OCc2ccc(F)cc2)n[nH]c1Nc1cnccn1

>  <READOUT>
pKd

>  <ENDPOINT VALUE>
< 4.52

$$$$
